These data points were gathered from paper PMC5540250.

System: non-small cell lung carcinoma A549
assay-method-text: MTT cytotoxicity test, 72 h, A549
Assay type: cell-based, human
reported-conditions: A549 cells, mean ± standard deviation from 3 independent experiments
test-readout: IC50 (µM)
Give the value, in units of µM, as a plain number.

[ask] What measured IC50 goes with N.N.[Cl][Pt][Cl] [Cisplatin] ?
[reply] 29
